Biological target: Apelin receptor (Homo sapiens) (UniProt P35414)
Sequence (P35414 whole entry, looked up): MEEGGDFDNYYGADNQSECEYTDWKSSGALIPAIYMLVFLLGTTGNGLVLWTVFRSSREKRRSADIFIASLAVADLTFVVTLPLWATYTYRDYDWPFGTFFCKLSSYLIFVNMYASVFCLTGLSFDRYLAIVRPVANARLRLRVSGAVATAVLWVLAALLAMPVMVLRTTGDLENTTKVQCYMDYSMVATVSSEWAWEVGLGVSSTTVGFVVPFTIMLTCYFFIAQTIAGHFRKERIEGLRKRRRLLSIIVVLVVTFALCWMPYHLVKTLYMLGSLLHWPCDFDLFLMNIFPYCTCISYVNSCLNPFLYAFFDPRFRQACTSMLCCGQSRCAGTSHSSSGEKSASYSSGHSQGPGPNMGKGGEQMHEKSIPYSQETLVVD
Test: apelin receptor activators, concentration-response – cell-based, luminescence, uHTS hits, dose response (AID 488748)
Details: CHO-K1 APJ PathHunter beta-arrestin
The source made the active and inactive calls.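 The calls were made as follows: active = compounds whose mean dose-response EC50 for APJ receptor activation is under 20 micromolar; inactive = the rest.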
readout: EC50

Examples with answers:
molecule	readout	measured result
CC1=CC(=O)C(C(C)C)=C/C1=N/OS(=O)(=O)c1ccccc1	EC50	7.6 µM
COC(=O)C1=C(Cn2cnc3ccccc32)NC(=O)NC1c1cc(C)ccc1C (stereo not given)	EC50	> 100 µM (inactive)

Query: Requested field: EC50. Item: COc1ccc(/C=N/Nc2cc(C)nc3ccc(OC)cc23)c(OC)c1
Result: > 100 µM (inactive)

Query: Need EC50, item CCCCCCc1cc2cc(-c3nnc(-c4cc(OC)c(OC)c(OC)c4)o3)c(=O)oc2cc1O
Result: > 100 µM (inactive)

Query: State the recorded EC50 for this entry: CCOC(=O)C1=C(Cn2cnc3ccccc32)NC(=O)NC1c1cc(C)ccc1C (stereo not given)
Result: > 100 µM (inactive)

Where do these numbers come from? They come from PubChem BioAssay AID488748.
